biological target: recombinant rat α6β3γ2 receptors (Rattus norvegicus, UniProt P18508+P30191); assay: Two-electrode voltage clamp of GABA-induced chloride currents in Xenopus oocytes; type: cell-based; details: 10 μM; α6β3γ2; ns = not significant
Sequence (P30191 20-453): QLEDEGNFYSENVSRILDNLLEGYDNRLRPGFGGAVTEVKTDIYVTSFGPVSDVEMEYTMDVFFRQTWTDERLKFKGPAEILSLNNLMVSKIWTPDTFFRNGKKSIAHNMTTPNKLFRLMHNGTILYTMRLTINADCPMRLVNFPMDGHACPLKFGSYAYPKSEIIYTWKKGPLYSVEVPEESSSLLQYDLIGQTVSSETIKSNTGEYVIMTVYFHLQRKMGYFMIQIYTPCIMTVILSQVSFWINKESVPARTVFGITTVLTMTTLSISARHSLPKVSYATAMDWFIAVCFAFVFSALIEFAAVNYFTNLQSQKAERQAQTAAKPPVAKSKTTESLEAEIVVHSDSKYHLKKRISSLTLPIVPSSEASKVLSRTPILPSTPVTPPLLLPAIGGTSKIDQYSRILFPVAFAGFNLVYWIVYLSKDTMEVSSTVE
Sequence (P63079 26-473 partner): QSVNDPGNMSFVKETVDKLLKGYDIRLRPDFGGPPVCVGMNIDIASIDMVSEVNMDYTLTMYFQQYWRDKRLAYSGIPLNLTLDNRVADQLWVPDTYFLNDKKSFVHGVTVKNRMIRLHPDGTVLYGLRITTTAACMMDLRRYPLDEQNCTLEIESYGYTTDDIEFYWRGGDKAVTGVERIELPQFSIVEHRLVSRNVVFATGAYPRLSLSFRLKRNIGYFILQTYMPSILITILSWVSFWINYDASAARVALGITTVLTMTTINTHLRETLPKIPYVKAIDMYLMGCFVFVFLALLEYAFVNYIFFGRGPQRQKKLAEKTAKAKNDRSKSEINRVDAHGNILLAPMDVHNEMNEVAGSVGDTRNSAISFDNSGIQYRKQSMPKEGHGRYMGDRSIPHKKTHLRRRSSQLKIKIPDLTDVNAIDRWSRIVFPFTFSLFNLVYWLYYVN
Sequence (P18508 39-466): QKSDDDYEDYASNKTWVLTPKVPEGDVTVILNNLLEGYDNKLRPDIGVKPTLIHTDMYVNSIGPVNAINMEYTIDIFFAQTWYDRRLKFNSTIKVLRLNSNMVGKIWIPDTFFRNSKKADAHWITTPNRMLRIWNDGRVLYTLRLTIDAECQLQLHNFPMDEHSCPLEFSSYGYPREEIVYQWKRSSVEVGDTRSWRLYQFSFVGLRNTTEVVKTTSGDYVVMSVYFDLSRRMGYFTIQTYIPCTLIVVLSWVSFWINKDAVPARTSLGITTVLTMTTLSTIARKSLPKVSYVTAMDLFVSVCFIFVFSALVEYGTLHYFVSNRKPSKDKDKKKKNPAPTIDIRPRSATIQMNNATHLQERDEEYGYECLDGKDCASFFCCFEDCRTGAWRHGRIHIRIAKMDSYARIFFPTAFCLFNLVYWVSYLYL
Measure: efficacy (% GABA EC3)

Worked examples, 7 compounds total:
Cc1nnc2ccc(-c3cccc(C(F)(F)F)c3)nn12	ns
CNC(=O)c1cc2c(cn1)[nH]c1ccccc12 [FG7142, N-methyl-β-carboline-3-carboxamide]	ns
CN1C(=O)CN=C(c2ccccc2)c2cc(Cl)ccc21	ns
Cc1ccc(-c2nc3ccc(C)cn3c2CC(=O)N(C)C)cc1	ns
CCOC(=O)c1ncn2c1CN(C)C(=O)c1cc(F)ccc1-2	179 ± 6 % GABA EC3
CN1CCN(C(=O)OC2c3nccnc3C(=O)N2c2ccc(Cl)cn2)CC1 (centres unmarked)	ns
CC(C)(C)OC(=O)c1ncn2c1[C@@H]1CCCN1C(=O)c1c(Br)cccc1-2	231 ± 13 % GABA EC3

For the next question, use this compound.
Please look up its efficacy (% GABA EC3): "CCc1c(C(=O)OC)ncc2[nH]c3cc(OC)c(OC)cc3c12"
353 ± 22 % GABA EC3

Reference for the values: paper PMC7615656
